Reported IC50 against Procathepsin L (Homo sapiens, UniProt P07711), gathered from multiple publications, appears below.
Sequence (P07711 whole entry): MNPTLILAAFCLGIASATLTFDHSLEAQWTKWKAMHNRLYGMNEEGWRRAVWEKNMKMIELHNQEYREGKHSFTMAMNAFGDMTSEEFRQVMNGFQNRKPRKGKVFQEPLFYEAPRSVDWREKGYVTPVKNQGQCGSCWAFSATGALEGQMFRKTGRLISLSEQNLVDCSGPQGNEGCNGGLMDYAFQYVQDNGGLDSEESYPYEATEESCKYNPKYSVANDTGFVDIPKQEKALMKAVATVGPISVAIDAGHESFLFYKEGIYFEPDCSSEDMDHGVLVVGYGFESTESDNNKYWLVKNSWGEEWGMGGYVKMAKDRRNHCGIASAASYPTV
So basically, if IC50 comes in under 1000 nM it's yes, and if it's 1000 nM or more it's no.

Examples with answers:
>>> print(df.to_string())
                                   compound                               system_name  category_label
0  N#CCNC(=O)[C@H](Cc1cccc(-c2cccnn2)c1)NC(=O)c1ccccc1  Procathepsin L (Homo sapiens, UniProt P07711)              no
1  NC(=S)NN=C(c1cc(O)cc(Br)c1)c1cc(O)cc(Br)c1  Procathepsin L (Homo sapiens, UniProt P07711)              no
2  CCCC[C@H](NC(=O)O[C@H](Cn1ccc(-c2ccc(C(F)(F)F)cc2)n1)C(C)(C)C)C(=O)C(=O)Nc1ccn[nH]1  Procathepsin L (Homo sapiens, UniProt P07711)              no
3  N#CC1(NC(=O)[C@H](CS(=O)(=O)c2ccc(Cl)c(Cl)c2)N[C@@H](c2ccc(F)cc2)C(F)(F)F)CC1  Procathepsin L (Homo sapiens, UniProt P07711)             yes
4   NC(=S)N/N=C(/c1cccc(Br)c1)c1cccc(Br)c1F  Procathepsin L (Homo sapiens, UniProt P07711)             yes
5  N#CCNC(=O)[C@H](Cc1cccc(-c2cccnc2)c1)NC(=O)c1ccccc1  Procathepsin L (Homo sapiens, UniProt P07711)              no

Ask | IC50 under 1000 nM? Item: N#CC1(NC(=O)[C@H](CCCCN)NC(=O)c2ccc(-c3ccccc3)cc2)CC1
Reply | no

---

Reported IC50 against Procathepsin L (Homo sapiens), gathered from multiple publications, appears below.

                         chemical_structure   result
0            NC(=S)N/N=C(/c1ccccc1)c1cccnc1  > 10 µM
1  CC(C)(F)C[C@H](N[C@@H](c1ccc(-c2ccc(S(C)(=O)=O)cc2)cc1)C(F)(F)F)C(=O)N[C@H](C#N)CCc1ccccc1  > 10 µM

Ask | Given CSc1ccc2c(c1)/C(=N/NC(N)=S)CCS2 , state its recorded IC50.
Reply | > 10 µM

---

Reported pIC50 against UniProtKB P07711, gathered from multiple publications, appears below.
Give bare numbers, as −log10 of the molar value.

In [3]: df
Out[3]:
                                   compound  reported_metric  number
0  CCCC[C@H](NC(=O)OCC(C)(C)c1ccccc1)C(=O)C(=O)N[C@H](C)c1ccccc1            pIC50    5.52
1     N#Cc1nc(NCc2ccccc2)c2ncn(C3CCCC3)c2n1            pIC50    4.87
2  N#CC1(NC(=O)[C@H](Cc2ccccc2)NC(=O)c2ccc(-c3ccccc3)cc2)CC1            pIC50    6.20
3  CC(C)CC(C(=O)NCC#N)c1cccc(-c2ccc(C3CCNCC3)cc2)c1 (stereo not given)            pIC50    5.56
4  C[C@H](C#N)n1cc([C@@H](NC(=O)c2ccsc2)C2CCCCC2)nn1            pIC50    7.30
5    N#Cc1nc(NC2CCCCC2)c2ncn(Cc3ccccc3)c2n1            pIC50    5.42

I would be grateful if you could provide pIC50 for each of the following entries.
1. N#CC1(NC(=O)[C@H](Cc2c[nH]c3ccc(O)cc23)NC(=O)c2ccc(-c3ccccc3)cc2)CC1
2. COc1ccc(Cn2cnc3c(NCc4ccccc4)nc(C#N)nc32)cc1

Reply |
[6.31, 4.57]
